Known melting point of a selection of molecules
Quick reminder: number only, in °C, skip the unit.

MOLECULE | MEASUREMENT_UNITS | melting point
CC(C)(c1nc(-c2ccccc2)c(CC(=O)OC2CCOC2=O)s1)c1c(Cl)cc(-n2ncc(=O)[nH]c2=O)cc1Cl (centres unmarked) | °C | 72
CON(C)C(=O)c1sc(C(C)(C)c2c(Cl)cc(-n3ncc(=O)[nH]c3=O)cc2Cl)nc1-c1ccccc1 | °C | 112

Qu. Report melting point, nothing else, for this molecule: `Cc1nc(C(C)(C)c2c(Cl)cc(-n3ncc(=O)[nH]c3=O)cc2Cl)sc1C(=O)c1ccccc1`
Ans. 174

Qu. Report melting point, nothing else, for this molecule: `C#CCOC(=O)c1sc(C(C)(C)c2c(Cl)cc(-n3ncc(=O)[nH]c3=O)cc2Cl)nc1-c1ccccc1`
Ans. 180

Qu. Report melting point, nothing else, for this molecule: CC(C)(c1nc(-c2ccccc2)c(C(=O)OCC2COC(=S)O2)s1)c1c(Cl)cc(-n2ncc(=O)[nH]c2=O)cc1Cl (centres unmarked)
Ans. 130

Qu. Report melting point, nothing else, for this molecule: COC(=O)C(CCCO)OC(=O)c1sc(C(C)(C)c2c(Cl)cc(-n3ncc(=O)[nH]c3=O)cc2Cl)nc1-c1ccccc1 (centres unmarked)
Ans. 100

Qu. Report melting point, nothing else, for this molecule: `C=CCOC(=O)c1sc(C(C)(C)c2c(Cl)cc(-n3ncc(=O)[nH]c3=O)cc2Cl)nc1-c1ccccc1`
Ans. 172

Qu. Report melting point, nothing else, for this molecule: `COCCOCCOC(=O)c1sc(C(C)(C)c2c(Cl)cc(-n3ncc(=O)[nH]c3=O)cc2Cl)nc1-c1ccccc1`
Ans. 151

Qu. Report melting point, nothing else, for this molecule: C[S+]([O-])CSC(=O)Cc1sc(C(C)(C)c2c(Cl)cc(-n3ncc(=O)[nH]c3=O)cc2Cl)nc1-c1ccccc1 (centres unmarked)
Ans. 154

Qu. Report melting point, nothing else, for this molecule: CC(C)(c1nc(-c2cccs2)c(CC(=O)OC2CCOC2=O)s1)c1c(Cl)cc(-n2ncc(=O)[nH]c2=O)cc1Cl (centres unmarked)
Ans. 110

Qu. Report melting point, nothing else, for this molecule: CC(C)(c1nc(-c2ccccc2)c(C(=O)SC2CCOC2=O)s1)c1c(Cl)cc(-n2ncc(=O)[nH]c2=O)cc1Cl (centres unmarked)
Ans. 212

Qu. Report melting point, nothing else, for this molecule: CC(C)(c1nc(-c2ccccc2)c(CSC2CCOC2=O)s1)c1c(Cl)cc(-n2ncc(=O)[nH]c2=O)cc1Cl (centres unmarked)
Ans. 100

Qu. Report melting point, nothing else, for this molecule: `CC(C)(c1nc(-c2ccccc2)c(C(=O)OCCNS(=O)(=O)N2CCCCC2)s1)c1c(Cl)cc(-n2ncc(=O)[nH]c2=O)cc1Cl`
Ans. 126

Qu. Report melting point, nothing else, for this molecule: `CCCCCCCCCCCCCCCOC(=O)Cc1sc(C(C)(C)c2c(Cl)cc(-n3ncc(=O)[nH]c3=O)cc2Cl)nc1-c1ccccc1`
Ans. 80
